# Tested on: Plasmodium falciparum
# run.description: GSK_TCMDC: Inhibition of Plasmodium falciparum 3D7 in whole red blood cells, using parasite LDH activity as an index of growth. Test compounds present at 2uM
# Format: functional
property: Inhibition (%)
Write it as a number; the unit % goes unstated.

N#Cc1ccc(NC(=O)N2CCCN(CCCCCNC(=O)/C=C/c3ccc(Cl)c(Cl)c3)CC2)cc1 ... 100
O=C(CCCCCNC(=O)c1ccc(O)c(-c2ccc(Cl)c(Cl)c2)c1)NC1CCCc2ccccc21 (stereo unspecified) ... 97
Cc1ccc(Cn2c(N3CCC(C(=O)NCc4cccs4)CC3)nc3ccccc32)cc1 ... 99
CC(C)CNC(=O)c1cncc(-c2ccc(CNCCCc3ccccc3)cc2)c1.O=C(O)C(F)(F)F ... 100
COc1cc(Nc2ccc3cc(S(=O)(=O)N4CCCCC4C)ccc3n2)cc(OC)c1OC (stereo unspecified) ... 88

Please give the measured Inhibition for this molecule: COc1cc(Cc2cnc(N)nc2N)cc(OCCCc2cc(OCc3ccccc3)no2)c1OC 86

Consider next the molecule O=C(/C=C/c1ccc(Cl)c(Cl)c1)NCCCCCN1CCCN(C(=O)Nc2cc(Cl)nc(Cl)c2)CC1 in the same way. 100

Consider next the molecule Cc1ccc(O)cc1Nc1ccnc2ccc(-c3cccc(CNCCN(C)C)c3)cc12 in the same way. 100

Consider next the molecule COc1cccc(NC(=O)Cn2c(C)c(C(=O)C(F)(F)F)c3ccccc32)c1 in the same way. 97

Consider next the molecule Cc1cc(N[C@@H](CC(C)C)C(=O)NCc2cccs2)nc(NCCc2cccs2)n1.O=C(O)C(F)(F)F in the same way. 92

Consider next the molecule Cc1cc(N[C@@H](CC(C)C)C(=O)NCCCOC(C)C)nc(NCCc2ccc(F)cc2)n1.O=C(O)C(F)(F)F in the same way. 87

Consider next the molecule COc1ccc2nccc([C@@H](O)CN3CCC(NCc4cc5cc(C)ccc5s4)CC3)c2c1.O=C(O)C(=O)O in the same way. 92

Consider next the molecule CCOc1ccc2c(c1)OC(c1ccccc1)(C(F)(F)F)NC2=O (stereo unspecified) in the same way. 100

Consider next the molecule Cc1ccc2[nH]c(C)cc(=NN=CC=Cc3ccccc3)c2c1 in the same way. 92

Consider next the molecule CN1CCN(CCCN(Cc2cccc(-c3ccc(CNC4CCCC4)cc3)c2)C(=O)/C=C/c2ccccc2)CC1.O=C(O)C(F)(F)F in the same way. 98

Consider next the molecule CCCCN(CCCC)Cc1cc(Nc2ccnc3cc(Cl)ccc23)ccc1O.Cl in the same way. 100

Consider next the molecule CCCc1ccc(-c2csc(NC(=O)c3ccc([N+](=O)[O-])o3)n2)cc1 in the same way. 85

Consider next the molecule COC(=O)C(c1ccc(NC(=O)[C@H](CC(C)C)NC(=O)OC(C)(C)C)cc1)c1ccc(NC(=O)[C@H](CC(C)C)NC(=O)OC(C)(C)C)cc1 in the same way. 94

Consider next the molecule COc1ccccc1C1CCN(CCN2CCC(NC(=O)c3ccc(-c4ccc(C#N)cc4)cc3)CC2)CC1 in the same way. 99

Consider next the molecule Cc1cccc2nc(-c3cccc(-c4ccc(NC(=O)CN5CCN(C)CC5)cc4)c3)[nH]c12 in the same way. 100

Consider next the molecule O=C(Nc1ccc(-c2ccc(-c3nc4ccccc4[nH]3)cc2)cc1)Nc1ccc(Cl)c(Cl)c1 in the same way. 100

Consider next the molecule CCc1c(C(=O)NC2CCC(N3CCC(c4ccccc4C)CC3)CC2)[nH]c2ccc(Br)cc12 (stereo unspecified) in the same way. 100

Consider next the molecule CCN(CC)CCN1C(=O)c2oc3ccc(Cl)cc3c(=O)c2C1c1ccc(SC)cc1 (stereo unspecified) in the same way. 98

Consider next the molecule CCCCNC[C@@H](O)[C@H](Cc1ccccc1)NC(=O)c1cc2c3c(c1)c(CC)cn3CCS(=O)(=O)N2C.O=CO in the same way. 99

Consider next the molecule NC(=O)C1CCN(Cc2ccc(-c3cccc(-c4nc5cc(F)ccc5[nH]4)c3)cc2)CC1.O=C(O)C(F)(F)F in the same way. 90

Consider next the molecule OC1(C(F)(F)F)CC(c2ccccc2)=NN1c1nncc(-c2ccccc2)n1 (stereo unspecified) in the same way. 99

Consider next the molecule CN(C)c1cc(NC(=O)Nc2ccc(SC(F)(F)F)cc2)c2ccccc2n1 in the same way. 100

Consider next the molecule O=C(c1cc(-c2cccs2)n[nH]1)N1CCN(S(=O)(=O)c2ccc(Cl)cc2)CC1 in the same way. 96

Consider next the molecule O=C(c1cccc(-c2noc(C(F)(F)F)n2)c1)N1CCN(C(=O)c2ccc3cc[nH]c3c2)CC1 in the same way. 94

Source: ChEMBL document CHEMBL1157539
